system: MALME-3M melanoma; assay: NCI tumour cell line growth inhibition, 48 h
outcome_measure: log10(TGI) (log10 of the value in µM)
Hey, these are logged values: log10 of TGI, µM being the unit before logging.

Examples from the recorded data:
Ask: Returns the measured log10(TGI) for the input compound. Input: O=C1/C(=C\c2ccccn2)c2ccccc2N1c1c(Cl)cccc1Cl
Reply: 0.69

Ask: Returns the measured log10(TGI) for the input compound. Input: CC1C2(C)OC(=N)C(C#N)(C(c3cccc([N+](=O)[O-])c3)O2)C1(C#N)C#N (stereo not drawn)
Reply: 1.86

Ask: Returns the measured log10(TGI) for the input compound. Input: Nc1nn2c(nc(N)c3c(N)[nH]nc32)c1N=Nc1ccc(Br)cc1
Reply: 1.26

Ask: Returns the measured log10(TGI) for the input compound. Input: CCN(CC)CCNC(=O)c1cn2c(ccc3sc4ccccc4c(=O)c32)n1
Reply: 1.43

Ask: Returns the measured log10(TGI) for the input compound. Input: C=C1CCC2C(C)(COC(=O)CC)C(OC(=O)CC)CCC2(C)C1C/C=C1/C(=O)OCC1OC(=O)CC (stereo not drawn)
Reply: 0.60

Continuing:
Ask: Returns the measured log10(TGI) for the input compound. Input: CCOC(=O)CC1C(COC(=O)NC)OC(n2cnc3c(NC(=O)Nc4ccccc4)ncnc32)C1O[Si](C)(C)C(C)(C)C (stereo not drawn)
Reply: 1.52

Ask: Returns the measured log10(TGI) for the input compound. Input: CC(C)(C)C1CCC2c3c([nH]c4ccccc34)C3C(=O)N(c4ccccc4)C(=O)C3C2C1 (stereo not drawn)
Reply: 0.86

Ask: Returns the measured log10(TGI) for the input compound. Input: Cc1cc(CC(C)CC(C)(C)C)n(O)c(=O)c1 (stereo not drawn) (tested in a mixture with another compound)
Reply: 1.11

Ask: Returns the measured log10(TGI) for the input compound. Input: O=C(Nc1ccc(-n2ccc3c(NC(=O)c4ccccc4)ncnc32)cc1)Nc1cccc(Cl)c1Cl
Reply: 0.62

Ask: Returns the measured log10(TGI) for the input compound. Input: COC(=O)c1cc(O)c2c(c1C(=O)OC)C[C@H]1[C@@H]3CC=C4C[C@@H](O)CC[C@]4(C)[C@H]3CC[C@]21C
Reply: 0.91

Ask: Returns the measured log10(TGI) for the input compound. Input: C=C(OC1C(C)=C2C(C1OC(=O)CCCCCCC)C(C)(OC(C)=O)CC(OC(=O)CCC)C1(O)C2OC(=O)C1(C)O)/C(C)=C/C (stereo not drawn)
Reply: -0.88

Ask: Returns the measured log10(TGI) for the input compound. Input: Cc1cn([C@@H]2O[C@H](CO[Si](C)(C)C(C)(C)C)[C@]3(O[C@H]3C(=O)NN)[C@H]2O[Si](C)(C)C(C)(C)C)c(=O)[nH]c1=O
Reply: 1.07

---

test system: SNB-19 CNS; assay: NCI tumour cell line growth inhibition, 48 h
outcome_measure: TGI

Ask: Returns the measured TGI for the input molecule. Input: Cc1nc(N2CCC3(CC2)CO[C@@H](C)[C@H]3N)c(CO)nc1Sc1ccnc(N)c1Cl
Reply: > 100 µM

Ask: Returns the measured TGI for the input molecule. Input: Cc1cc(CC(C)CC(C)(C)C)n(O)c(=O)c1 (centres undefined) (tested in a mixture with another compound)
Reply: > 100 µM

Ask: Returns the measured TGI for the input molecule. Input: CC(C)(C)CC(C)(C)NCc1cc(C(C)(C)C)cc(CNC(C)(C)CC(C)(C)C)c1O
Reply: 17.8 µM

Ask: Returns the measured TGI for the input molecule. Input: COc1ccc(/C=N\Nc2ccc([N+](=O)[O-])cn2)cc1OC
Reply: > 100 µM

Continuing:
Ask: Returns the measured TGI for the input molecule. Input: CCN(CC)CCCNC(=O)c1c2c(n3ccccc13)C(=O)c1ncccc1C2=O
Reply: 2.67 µM

Ask: Returns the measured TGI for the input molecule. Input: O=C(Nc1ccc(-n2ccc3c(NC(=O)c4ccccc4)ncnc32)cc1)Nc1cccc(Cl)c1Cl
Reply: 5.84 µM

Ask: Returns the measured TGI for the input molecule. Input: CC(=O)OCC1OC(Oc2cc(C)c(O)cc2C/C=C(\C)CC/C=C(\C)CC(=O)CC(C)C)C(O)C(OC(C)=O)C1OC(C)=O (centres undefined)
Reply: > 50 µM

Ask: Returns the measured TGI for the input molecule. Input: CC(=O)OC1COC(Nc2nc(NCc3ccccc3)n(C)c(=O)c2N=O)C(OC(C)=O)C1OC(C)=O (centres undefined)
Reply: > 10 µM

Ask: Returns the measured TGI for the input molecule. Input: CCOC(=O)c1sc2[n+](c1C)C(=O)/C(=C/c1ccc([N+](=O)[O-])cc1)S2
Reply: > 100 µM

Ask: Returns the measured TGI for the input molecule. Input: Nc1nn2c(nc(N)c3c(N)[nH]nc32)c1N=Nc1ccc(Br)cc1
Reply: > 92.8 µM

Ask: Returns the measured TGI for the input molecule. Input: CC(=O)OC[C@@H](OC(C)=O)[C@H](OC(C)=O)[C@@H]1OC(C)(C)O[C@@H]1C1SCCCS1
Reply: > 100 µM

Ask: Returns the measured TGI for the input molecule. Input: Cc1noc(NC2=CC(=O)C(=O)c3ccccc32)c1C
Reply: > 100 µM

Ask: Returns the measured TGI for the input molecule. Input: O=C1C=CC(=O)c2cc(Sc3ccccc3)c(=O)ccc21
Reply: 38.1 µM

Ask: Returns the measured TGI for the input molecule. Input: Cc1c(C(=O)/C=C/c2ccc(N(C)C)cc2)c(=O)n(-c2ccccc2)n1C
Reply: > 100 µM

Ask: Returns the measured TGI for the input molecule. Input: COc1cccc(/C=C/C(=O)c2ccc(Cl)cc2Cl)c1
Reply: 16.8 µM

Ask: Returns the measured TGI for the input molecule. Input: CC(C)C(/C=C/c1ccc(Cl)c(Cl)c1)=N\NC(=O)N/N=C(/C=C/c1ccc(Cl)c(Cl)c1)C(C)C
Reply: > 100 µM
